Kindly state remaining activity for each of the entries shown.
- Test system: Aerobactin synthetase IucA (Klebsiella pneumoniae, hypervirulent)
- assayOverview: IucA enzyme inhibition, biochemical, LOPAC library, absorbance readout (AID 1346212);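 also: 100% = no compound wells and 0% = no enzyme wells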
- runParameters: IucA enzyme assay, absorbance (OD) readout; stronger effect = lower value; concentration not given here
One number for each entry, in %.

>>> readoutvalue("O=C(O)/C=C/C(O)c1ccc(Cl)cc1 (stereo not given)")
120
>>> readoutvalue("CC(N)=O")
124
>>> readoutvalue("NC1CCN(c2cccc(Cl)n2)CC1")
104

# return remaining activity for each item in the list
1. CC(C)(C)c1onc(OCP(=O)(O)O)c1CC(N)C(=O)O (stereo not given)
2. Cc1cccc(C)c1NC(=O)C(C)N (stereo not given)

Response line:
1. 112
2. 95.4

====

- Tested on: Aerobactin synthetase IucA (Klebsiella pneumoniae hvKP1)
- assayOverview: Biochemical IucA enzyme inhibition primary screen of the Spectrum library (AID 1346200);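 also: 100% = wells without compound and 0% = wells lacking enzyme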
- runParameters: malachite green pyrophosphate, A620, at 8 µM, stronger effect = lower value
Kindly state activity remaining for each of the entries shown.
Give bare numbers, in %.

Here is how some compounds turned out for activity remaining.
>>> readoutvalue("COc1cc2c(cc1OC)[C@@H]1C(=O)c3ccc4c(c3O[C@@H]1CO2)CC(C(C)C)O4 (some centres undefined)")
114
>>> readoutvalue("COc1cc(NS(=O)(=O)c2ccc(N)cc2)nc(OC)n1")
90.2
>>> readoutvalue("CC(=O)OC[C@H]1O[C@@H](Oc2cc(OC(C)=O)c3c(=O)cc(-c4ccc(OC(C)=O)cc4)oc3c2)[C@H](OC(C)=O)[C@@H](OC(C)=O)[C@@H]1OC(C)=O")
92.5

# return activity remaining for each item in the list
1. COC[C@]12CN(C=O)C3[C@@H]4[C@H](OC)C1[C@]3(C1CC3(O)C(OC)C(O)C4(OC(C)=O)C1C3OC(=O)c1ccccc1)[C@@H](OC)C[C@H]2O (some centres undefined)
2. CC(C)(Oc1ccc(CCNC(=O)c2ccc(Cl)cc2)cc1)C(=O)O

Response line:
1. 118
2. 96.6

# return activity remaining for each item in the list
1. C=C[C@H]1CN2CC[C@H]1C[C@@H]2[C@H](O)c1ccnc2ccccc12
2. COC(=O)C1=CO[C@@H](O[C@@H]2O[C@H](CO)[C@@H](O)[C@H](O)[C@H]2O)[C@@H]2[C@@H](C)CC(=O)[C@]12O
3. CC(Cc1ccc(O)cc1)NCC(O)c1cc(O)cc(O)c1 (centres undefined)
4. CCOC(=O)[C@H](CCc1ccccc1)N[C@H]1CCc2ccccc2N(CC(=O)O)C1=O
5. CC(=O)[C@H]1CCC2C3CCC4=CC(=O)CC[C@]4(C)C3CC[C@@]21C (some centres undefined)
6. CN(C)CCCN1c2ccccc2CCc2ccccc21

Response line:
1: 125; 2: 109; 3: 110; 4: 123; 5: 106; 6: 107

# return activity remaining for each item in the list
1. CN=C(NC#N)NCCSCc1nc[nH]c1C
2. Cc1cc(N)c2ccccc2[n+]1CCCCCCCCCC[n+]1c(C)cc(N)c2ccccc21

Response line:
98.9
82.6

====

- assayOverview: HepG2 cytotoxicity, primary screen, cytotoxicity control for P. falciparum antimalarial project, cell-based, ATP luminescence (AID 2303);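 also: 0% = DMSO wells and 100% = digitonin-killed cells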
- runParameters: HepG2 viability, 24-48 h, at 10 µM, stronger effect = higher value
readout: inhibition (%)
Numbers only, in %.

>>> readoutvalue("O=[N+]([O-])c1ccc(Oc2c(Cl)cc(S(=O)(=O)NC3CCC(CN4CCC(c5c[nH]c6ccccc56)CC4)CC3)cc2Cl)c(Cl)c1 (stereo not given)")
30
>>> readoutvalue("O=C1Nc2cccc3c2C1(CCCCCN1CC=C(c2c[nH]c4ccccc24)CC1)CCC3 (stereo not given)")
2
>>> readoutvalue("COC(=O)c1ccc(CC(C)NCC(O)c2cccc3ccccc23)cc1 (stereo not given)")
3
>>> readoutvalue("Cc1cccc(N2CCN(Cc3cc(Cl)ccc3O)CC2)c1C")
-2

# return inhibition for each item in the list
1. CC[C@H]1CN2CC[C@@H]1C[C@H]2[C@H](O)c1cc(-c2c(C)noc2C)nc2ccc(OC)cc12
2. CCCCn1c(C)c(C(=O)OCC)c2cc(OC(C)=O)c(Br)cc21
3. Cc1csc(-c2ccc3[nH]cc(C4=CCN(C)CC4)c3c2)n1
4. CC[C@H]1CN2CC[C@@H]1C[C@H]2[C@H](O)c1cc(-c2ccc(Cl)c(Cl)c2)nc2ccc(O)cc12
5. CC[C@H]1CN2CC[C@@H]1C[C@H]2[C@H](O)c1cc(-c2ccc(F)cc2)nc2ccc(O)cc12
6. CC(=O)N(Cc1cccc(-c2cccc(CNCCc3ccccc3)c2)c1)C1CCN(Cc2ccccc2)CC1

Response line:
1. 4
2. -8
3. 10
4. -8
5. 25
6. 22

# return inhibition for each item in the list
1. C=C[C@H]1CN2CC[C@H]1C[C@H]2[C@H](O)c1cc(/C=C/c2ccc(F)cc2)nc2ccc(OC)cc12
2. COc1ccc(CN(C2CC2)C(C)C(=O)c2[nH]c(C)c(C(C)=O)c2C)cc1 (stereo not given)
3. COc1ccc(CN2CCN(CCOC(c3ccccc3)c3ccc(Cl)cc3)CC2)c(O)c1 (stereo not given)
4. CC(=O)Nc1ccc(CN2CCC(N(C)c3cc(NC(=O)c4ccc(F)cc4)ccn3)CC2)cc1
5. NCc1cccc(-c2cccc(CN(C(=O)Nc3ccccc3)C3CCN(Cc4ccccc4)CC3)c2)c1
6. CN(C)CCCn1cc(C(=O)OC2C[C@H]3CC[C@@H](C2)N3C)c2cc(-c3ccccc3)ccc21 (stereo not given in full)
7. CC(=O)Nc1ccc(OCCN(CC(C)C)c2ccc(C#N)c(C(F)(F)F)c2)c(Cl)c1
8. O=C(C=Cc1cc([N+](=O)[O-])ccc1Cl)NC1CCC(CN2CCC(c3c[nH]c4ccccc34)CC2)CC1 (stereo not given)

Response line:
1. 25
2. 40
3. 12
4. 0
5. 3
6. 97
7. 13
8. 21

# return inhibition for each item in the list
1. C=C[C@H]1CN2CC[C@H]1C[C@H]2[C@H](O)c1ccnc2ccccc12
2. O=C(NC1CCC(CN2CCC(c3c[nH]c4ccccc34)CC2)CC1)c1cc(-c2ccc(F)cc2F)ccc1O (stereo not given)

Response line:
1. 9
2. 30

====

- Tested on: Aerobactin synthetase IucA (Klebsiella pneumoniae hvKP1)
- assayOverview: Biochemical IucA enzyme inhibition primary screen of the Spectrum library (AID 1346200);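 also: 100% = wells without compound and 0% = wells lacking enzyme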
- runParameters: malachite green pyrophosphate, A620, at 8 µM, stronger effect = lower value
Kindly state activity remaining for each of the entries shown.
Answers are plain numbers, in %.

Here is how some compounds turned out for activity remaining.
>>> readoutvalue("NCCSSCCN")
116
>>> readoutvalue("CC1COc2c(N3CCN(C)CC3)c(F)cc3c(=O)c(C(=O)O)cn1c23 (stereo not drawn)")
92.3
>>> readoutvalue("CC1=C(C(=O)O)N2C(=O)[C@@H](NC(=O)[C@H](N)C3=CCC=CC3)C2SC1 (stereo partly drawn)")
103
>>> readoutvalue("COC1(C)CCC2OC2(C)CCC2C1CC2(C)C (stereo not drawn)")
113
>>> readoutvalue("CC(C)(O)[C@@H]1CC[C@](C)([C@H]2[C@@H](O)C[C@@]3(C)C4C[C@H](O[C@@H]5O[C@H](CO)[C@@H](O)[C@H](O)[C@H]5O)C5C(C)(C)[C@@H](O[C@@H]6OC[C@@H](O)[C@H](O)[C@H]6O)CC[C@@]56C[C@@]46CC[C@]23C)O1 (stereo partly drawn)")
93
>>> readoutvalue("CC(=O)O[C@]1(C(C)=O)CCC2C3C=C(Cl)C4=CC(=O)CC[C@]4(C)C3CC[C@@]21C (stereo partly drawn)")
130
>>> readoutvalue("CC(=O)OCC[C@H](C)CCC=C(C)C")
104
>>> readoutvalue("C[C@@H]1OC(O[C@H]2[C@H](OC(=O)[C@]34CCC(C)(C)CC3C3=CCC5[C@@]6(C)CC[C@H](OC7O[C@@H](C)[C@H](O[C@@H]8OC[C@@H](O)[C@H](O)[C@H]8O)[C@@H](O)[C@H]7O)C(C)(C)C6CC[C@@]5(C)[C@]3(C)CC4O)OC[C@H](O)[C@H]2O)[C@H](O)[C@H](O)[C@H]1O[C@@H]1O[C@H](CO)[C@@H](O)[C@H](O)[C@H]1O (stereo partly drawn)")
99.8
>>> readoutvalue("C=CCSSSCC=C")
91.6
>>> readoutvalue("CCN(CC)C(=O)c1cccc(C)c1")
112

# return activity remaining for each item in the list
1. O[N+]1=CC=CCC1=S.On1ccccc1=S.[Zn]
2. COc1ccc2c(c1)OC/C(=C/c1ccc(OC)c(OC)c1)C2=O

Response line:
92.5
123

====

- assayOverview: suppressors of polyQ aggregation in yeast, 75Q-TubU reporter (AID 1593)
- runParameters: Yeast 75Q polyglutamine aggregation reporter
Label 1 when score is strictly below 1; at or above that, label -1.

>>> assignedcategory("Cc1cccc(C)c1NC1=NCCCS1")
-1
>>> assignedcategory("COc1cc(CCN)cc(OC)c1OC")
-1
>>> assignedcategory("O=c1c2ccccc2[se]n1-c1ccccc1")
1

Next, consider the following molecule.
Prompt line: hey, is score for C=CCc1ccc2c(c1)OCO2 lower than 1 or not?
Response line: 1
